These data points were gathered from BindingDB's records for doi:10.1080/14756360701536455.

Biological target: Carboxylic ester hydrolase (Equus caballus, UniProt Q9N1N9)
Sequence (Q9N1N9 whole entry): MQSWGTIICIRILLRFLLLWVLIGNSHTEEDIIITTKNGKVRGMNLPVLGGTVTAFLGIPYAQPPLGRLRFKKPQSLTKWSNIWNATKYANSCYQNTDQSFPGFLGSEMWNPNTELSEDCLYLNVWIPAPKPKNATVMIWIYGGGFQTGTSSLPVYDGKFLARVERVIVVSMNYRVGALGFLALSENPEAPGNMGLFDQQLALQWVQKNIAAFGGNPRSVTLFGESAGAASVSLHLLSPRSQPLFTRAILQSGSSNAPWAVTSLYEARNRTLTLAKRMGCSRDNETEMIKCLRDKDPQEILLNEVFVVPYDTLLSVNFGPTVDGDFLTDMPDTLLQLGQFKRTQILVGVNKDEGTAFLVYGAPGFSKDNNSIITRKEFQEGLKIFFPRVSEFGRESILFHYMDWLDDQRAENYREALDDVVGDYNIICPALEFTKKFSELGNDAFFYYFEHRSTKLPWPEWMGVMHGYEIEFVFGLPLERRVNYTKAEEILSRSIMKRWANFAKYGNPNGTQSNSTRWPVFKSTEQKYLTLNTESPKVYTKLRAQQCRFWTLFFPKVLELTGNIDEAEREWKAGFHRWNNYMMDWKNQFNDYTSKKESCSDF
Test: Cholinesterase Inhibition Assay
Conditions: pH 8; 25 °C
Method: Butyrylcholinesterase activity-inhibiting activities were measured by a slightly modified spectrophotometric method developed by Ellman. DTNB was used for the measurement of cholinesterase activity and butyrylthiocholine chloride was used as a substrate.
// assign 1 if IC50 falls strictly below 20 µM, else -1 (ties count as -1)

Here are 5 compounds together with their reported answers.
compound	target	qualitative label
O=S(=O)(O)ON=C(Cc1cc2ccccc2n1S(=O)(=O)O)SC1OC(CO)C(O)C(O)C1O (configuration not stated) [Sulfoglucobrassicin, 4]	Carboxylic ester hydrolase (Equus caballus, UniProt Q9N1N9)	-1
N#CC(=C1Nc2ccccc2C1=O)c1c[nH]c2ccccc12	Carboxylic ester hydrolase (Equus caballus, UniProt Q9N1N9)	-1
COc1ccc2c3c1O[C@H]1C[C@@H](O)C=C(CN(C)C2)[C@H]31 [Galanthamine, 7]	Carboxylic ester hydrolase (Equus caballus, UniProt Q9N1N9)	1
C=CC(CC(=NOS(=O)(=O)O)SC1OC(CO)C(O)C(O)C1O)OC(=O)CC1(O)C(=O)Nc2ccccc21 (configuration not stated) [3'-Hydroxyepiglucoisatisin, 3]	Carboxylic ester hydrolase (Equus caballus, UniProt Q9N1N9)	1
O=C(O)CC(=O)OCC1OC(Oc2c[nH]c3ccccc23)C(O)C(=O)C1O (configuration not stated) [Isatan A, 5]	Carboxylic ester hydrolase (Equus caballus, UniProt Q9N1N9)	-1

Please look at the following compound next.
Query: Quick check: IC50 of O=C1C(O)C(CO)OC(Oc2c[nH]c3ccccc23)C1O (configuration not stated) [Isatan B, 6] under 20 µM?
Response: -1
